Measured values drawn from patent US6495550B2 for this set.

melting point values by entry
OBSERVATION TYPE: melting point (°C)

1. O=C(Nc1ccc(Cl)nc1)c1cccc(F)c1 [Compound 9]	160
2. O=C(Nc1ccc(Cl)nc1)c1ccc([N+](=O)[O-])c(F)c1 [Compound 37]	205
3. O=C(Nc1ccc(Cl)nc1)c1cc2cc(F)ccc2[nH]1 [Compound 17]	290
4. O=C(Nc1ccc(Cl)nc1)c1ccc([N+](=O)[O-])cc1 [Compound 42]	193
5. Nc1ccc(C(=O)Nc2ccc(Cl)nc2)cc1F [Compound 41]	193

====

melting point values by entry
OBSERVATION TYPE: melting point

1. O=C(Nc1ccc(Cl)nc1)c1ccc(C(F)(F)F)c(F)c1	182 °C
2. Cc1cc(C(=O)Nc2ccc(Cl)nc2)ccc1[N+](=O)[O-]	192 to 193 °C
3. CCc1ccc2[nH]c(C(=O)Nc3ccc(Cl)nc3)cc2c1	270 °C
4. O=C(Nc1ccc(Cl)nc1)c1ccc(-c2ccccc2)cc1	227 to 229 °C
5. O=C(Nc1ccc(F)nc1)c1cnc(F)c(F)c1	135 to 137 °C
6. O=C(Nc1ccc(Cl)nc1)c1ccc(Cl)s1	215 to 216 °C
7. O=C(Nc1ccc(Cl)nc1)c1cc2ccccc2[nH]1	260 to 263 °C

====

melting point values by entry
OBSERVATION TYPE: melting point

1. O=C(Nc1ccc(Cl)nc1)c1cccc(Cl)c1	153 to 154 °C
2. O=C(Nc1ccc(Cl)nc1)c1ccc(N2CCOCC2)c(F)c1	228 to 229 °C
3. O=C(Nc1ccc(Cl)nc1)c1cc2cc(Cl)ccc2o1	222 to 223 °C
4. O=C(Nc1ccc(Cl)nc1)c1cc2cc(Cl)ccc2[nH]1	296 °C
5. O=C(Nc1ccc(Cl)nc1)c1ccc(Cl)cc1	197 to 199 °C
6. O=C(Nc1ccc(Cl)nc1)c1ccc(Cl)c(Cl)c1	188 to 189 °C
7. O=C(Nc1ccc(Cl)nc1)c1ccc(Cl)nc1	228 °C
8. O=C(Nc1ccc(Cl)nc1)c1ccccc1 [Compound 25, N-(6-Chloro-pyridin-3-yl)-benzamide]	163 to 164 °C
9. O=C(Nc1ccc(Cl)nc1)c1ccc(Cl)o1	143 to 144 °C
10. Cc1c(C(=O)Nc2ccc(Cl)nc2)[nH]c2ccccc12	184 to 185 °C

====

melting point values by entry
OBSERVATION TYPE: melting point

1) O=C(Nc1ccc(Cl)nc1)c1cccc(C(F)(F)F)c1 [Compound 10]	169 to 170 °C
2) CN(C)c1ccc(C(=O)Nc2ccc(Cl)nc2)cc1F [Compound 34]	170 to 171 °C
3) O=C(Nc1ccc(Cl)nc1)c1cccc(C(F)(F)F)c1 [Compound 3]	139 to 140 °C
4) O=C(Nc1ccc(Cl)nc1)c1ccc(NC(=O)c2ccccn2)cc1 [Compound 35]	258 to 260 °C
5) O=C(Nc1ccc(Cl)nc1)c1ccc(NCc2ccccn2)c(F)c1 [Compound 33]	210 to 211 °C
